Tested on: HS 578T breast
Assay: NCI tumour cell line growth inhibition, 48 h
# reported TGI; entries follow

• C/C=C\C(CC(=O)NCCC1CN(C(=O)OCc2ccccc2)c2ccccc21)CC(=O)OC (stereo not drawn) = > 100 µM
• COc1c(C)c(OC)c(C(=O)CC(C)C)c(OC)c1C = > 100 µM

Next item in the queue.
## Input HS 578T breast / TGI / CCOC(=O)[C@@]1(C(C)=O)CC(C)=C(C)C[S@]1=O : value?
## Output > 100 µM

* * *

System: MDA-MB-231 breast
Assay: NCI tumour cell line growth inhibition, 48 h
readoutKind: GI50

Reference set, count: 3
* CC1OC(CC(=O)O)Cc2c1c(O)c1c(O)cc(-c3cc(=O)c4c(=O)c5c(c(=O)c=4c3=O)CC(CC(=O)O)OC5C)c(O)c1c2O (centres undefined) | 29.4 µM
* CCN(CC)CCn1c(=O)c2cc(OC)c(OC)cc2c2ccc3cc4c(cc3c21)OCO4 | 1.29 µM
* CC1(C)N=c2cc3c(cc2N1c1ccc(Cl)cc1)=Nc1ccccc1N3c1ccc(Cl)cc1 | 59.7 µM

## Input What measured GI50 goes with COc1ccc(C2CC(c3ccc(OC)cc3O)=NN2c2ccc(S(N)(=O)=O)cc2)cc1 (centres undefined) ?
## Output 15.3 µM

* * *

System: MOLT-4 leukemia
Assay: NCI tumour cell line growth inhibition, 48 h; in the data active = GI50 below about 0.43 µM; inactive = the rest
The reply should be one of these categories: 1 (active), 0 (inactive)

- CCN1C(=O)N(CC)C2C1NN=c1s/c(=C\c3ccc(C(F)(F)F)cc3)c(=O)n12 (stereo unspecified): 1
- S=C1SCN(Cc2ccccc2)CN1Cc1ccccc1: 0

## Input Assay result, entry O=C(Nc1ccccc1Cl)c1ccc(NC2=C(Cl)C(=O)N(C3CCCCC3)C2=O)cc1 — outcome?
## Output 0

## Input Assay result, entry Fc1ccc(-c2ncn(CCCN3CCOCC3)c2-c2ccncc2)cc1 — outcome?
## Output 0

## Input Assay result, entry Cc1ccc2[nH]c(C(=O)NN3C(=O)C(C)SC34CCC(C)CC4)c(-c3ccccc3)c2c1 (stereo unspecified) — outcome?
## Output 0

## Input Assay result, entry COc1ccc2c(c1)C(=O)c1c-2c(N2CCN(C(=O)CCNCCNCCN)CC2)nc2ccccc12 — outcome?
## Output 0

* * *

System: HL-60(TB) leukemia
Assay: NCI tumour cell line growth inhibition, 48 h
# reported GI50; entries follow

• C#Cc1cccc(NC(=O)c2cccc(NC(=O)CCl)c2)c1 = 13.2 µM

Next item in the queue.
## Input What measured GI50 goes with COc1ccc(C2=NN(C(C)=O)C(c3ccc(Oc4ccnc5cc(Cl)ccc45)c(OC)c3)C2)cc1 (stereo unspecified) ?
## Output > 100 µM

* * *

# reported TGI; entries follow
Tested on: UACC-257 melanoma
Assay: NCI tumour cell line growth inhibition, 48 h

Reference set, count: 3
* CN(C)c1ccc(C2CC(=O)CC(c3ccc(N(C)C)cc3)C23C(=O)NC(=S)NC3=O)cc1 (stereo not given) | > 100 µM
* O=c1oc2ccc(Cl)cc2c(=O)n1-c1ccc(F)cc1F | 4.08 µM
* CCOC(=O)CNC(=O)OCc1ccccc1 | > 100 µM

## Input What measured TGI goes with CN(/N=C/c1ccc(Cl)c(Cl)c1)C1=NCCCCN1 ?
## Output 50.8 µM

## Input What measured TGI goes with O=S(=O)(O)n1ccnc1 (tested in a mixture with another compound) ?
## Output > 100 µM

## Input What measured TGI goes with CC(=O)Nc1ccc(OC(C)=O)cc1 ?
## Output 29.7 µM

## Input What measured TGI goes with O=C1NC(=O)C(C(c2ccc([N+](=O)[O-])cc2)C2C(=O)NC(=O)NC2=O)C(=O)N1 ?
## Output > 100 µM

## Input What measured TGI goes with CS(=O)(=O)NNS(=O)(=O)c1ccc(F)cc1 ?
## Output > 100 µM

## Input What measured TGI goes with CSc1nc(-c2ccccc2)nc(C(C#N)C#N)n1 ?
## Output > 100 µM

## Input What measured TGI goes with Cc1cc2c(=O)c(C)n[nH]c2c(C#N)c1C ?
## Output > 100 µM

// provenance: PubChem BioAssay (NCI)
